System: Polygonum convolvulus
Test: Post-emergence herbicidal effect
Format: in vivo
Conditions: 80 g/ha, assessed visually after about 3 weeks vs untreated controls
Each entry below carries its reported post-emergence efficacy POLCO.
Hi! Could you send only the number? It should be in %, unit omitted.

// below: answered compounds
CS(=O)(=O)c1cnc(NC2CCCc3cc(Cl)sc32)nc1N (racemic) : 80
Cc1cc2c(s1)CCCC2Nc1ncc(C(F)(F)F)c(N)n1 (racemic) [compound 11] : 90
Cc1cc2c(s1)CCCC2Nc1ncc(C(F)(F)F)c(N)n1 (racemic) [compound 257] : 60
Cc1cc2c(s1)CCCC2Nc1ncc(C(F)(F)F)c(N)n1 (racemic) [compound 61] : 80
Cc1cc2c(s1)CCCC2Nc1ncc(C#N)c(N)n1 (centres unmarked) : 90

Query: post-emergence efficacy POLCO; subject: Cc1cc2c(s1)CCC[C@H]2Nc1ncc(C(F)(F)F)c(N)n1
80

Query: post-emergence efficacy POLCO; subject: C/C(=N\O)c1cnc(NC2CCCc3sc(Cl)cc32)nc1C (racemic)
60

Query: post-emergence efficacy POLCO; subject: Nc1nc(NC2CCc3sc(Cl)cc32)ncc1C(F)(F)F (racemic)
90

Query: post-emergence efficacy POLCO; subject: Cc1cc2c(s1)C(Nc1ncc(C(F)(F)F)c(N)n1)CCC2 (racemic)
90

Query: post-emergence efficacy POLCO; subject: Cc1cc2c(s1)CC(C)C2Nc1ncc(S(C)(=O)=O)c(N)n1 (racemic)
80

Query: post-emergence efficacy POLCO; subject: Nc1nc(N[C@@H]2CCCc3sccc32)ncc1C(F)(F)F
90

====

Test: logP (HCOOH)
Format: physicochemical
Details: HCOOH (formic acid)
assay readout: chromatographic logP
// no unit, no text: just the number

// below: answered molecules
Cc1cc2c(s1)CCC[C@H]2Nc1ncc(C(F)(F)F)c(N)n1 : 2.62
Cc1sc2c(c1C)C(Nc1ncc(C(F)(F)F)c(N)n1)CCC2 (stereo not shown) : 2.66
CS(=O)(=O)c1cnc(NC2CCc3ccsc32)nc1N (stereo not shown) : 1.57
Cc1cc2c(o1)CC(C)(C)CC2Nc1ncc([N+](=O)[O-])c(N)n1 (stereo not shown) : 3.2
Cc1cc2c(o1)CC(C)(C)CC2Nc1ncc(C(F)(F)F)c(N)n1 (stereo not shown) : 2.23

Query: chromatographic logP; subject: Cc1cc2c(s1)CCCC2Nc1ncc(F)c(N)n1 (stereo not shown)
1.07

Query: chromatographic logP; subject: CCCS(=O)(=O)c1cnc(NC2CCCc3sccc32)nc1N (stereo not shown)
2.33

====

Tested on: Echinochloa crus-galli
Assay: Post-emergence herbicidal effect
Format: in vivo
Details: 320 g/ha, assessed visually after about 3 weeks vs untreated controls
Each entry below carries its reported post-emergence efficacy ECHCG.
Hi! Could you send only the number? It should be in %, unit omitted.

Nc1nc(NC2CCCc3sc(Cl)cc32)ncc1C(F)(F)F (racemic) : 90

Query: post-emergence efficacy ECHCG; subject: Cc1cc2c(s1)C(Nc1ncc3c(n1)CCCC3=O)CCC2 (racemic)
100

Query: post-emergence efficacy ECHCG; subject: Cc1cc2c(s1)CCCC2Nc1nc(N)c(Br)c(C(F)F)n1 (racemic) [compound 314]
60

Query: post-emergence efficacy ECHCG; subject: Cc1cc2c(s1)CCCC2Nc1nc(N)c(Br)c(C(F)F)n1 (racemic) [compound 284]
80

Query: post-emergence efficacy ECHCG; subject: Cc1cc2c(s1)C(Nc1ncc(S(C)(=O)=O)c(N)n1)CCC2 (racemic)
100

Query: post-emergence efficacy ECHCG; subject: Cc1cc2c(s1)CCC[C@H]2Nc1ncc(I)c(N)n1
100

Query: post-emergence efficacy ECHCG; subject: O=S1(=O)CCCc2nc(N[C@@H]3CCCc4sccc43)ncc21
100

Query: post-emergence efficacy ECHCG; subject: Cc1cc2c(s1)CCCC2Nc1ncc(C(F)(F)F)c(N)n1 (racemic) [compound 257]
100

Query: post-emergence efficacy ECHCG; subject: Cc1cc2c(s1)CCCC2Nc1ncc(SC(F)(F)F)c(C)n1 (racemic)
70
